target: Adrenergic receptor alpha-1 (Rattus norvegicus, UniProt P15823+P23944+P43140); assay: Binding affinity at Alpha-1 adrenergic receptor by inhibition of [3H]-prazosin binding to rat cortex
So basically: is Log Ki under -7? Then y. Not under? Then n.

MOLECULE: Cc1ccc2c(c1)C[C@@H](N1CCC(c3cccc4c3OCCO4)CC1)[C@@H]2O (relative stereo)
TARGET OF ASSAY: Adrenergic receptor alpha-1 (Rattus norvegicus, UniProt P15823+P23944+P43140)
CLASS LABEL: y

MOLECULE: O[C@@H]1c2ccc(F)cc2C[C@H]1N1CCC(c2cccc3c2OCC3)CC1 (relative stereo)
TARGET OF ASSAY: Adrenergic receptor alpha-1 (Rattus norvegicus, UniProt P15823+P23944+P43140)
CLASS LABEL: y

MOLECULE: O[C@@H]1c2cc(F)ccc2C[C@H]1N1CCN(c2cccc3c2OCCO3)CC1 (relative stereo)
TARGET OF ASSAY: Adrenergic receptor alpha-1 (Rattus norvegicus, UniProt P15823+P23944+P43140)
CLASS LABEL: n

MOLECULE: O[C@@H]1c2ccc(F)cc2C[C@H]1N1CCC(c2cccc3c2OCCC3)CC1 (relative stereo)
TARGET OF ASSAY: Adrenergic receptor alpha-1 (Rattus norvegicus, UniProt P15823+P23944+P43140)
CLASS LABEL: y

MOLECULE: OCC1COc2c(cc(Cl)cc2N2CCN([C@@H]3Cc4cc(F)ccc4[C@H]3O)CC2)O1 (relative stereo)
TARGET OF ASSAY: Adrenergic receptor alpha-1 (Rattus norvegicus, UniProt P15823+P23944+P43140)
CLASS LABEL: n

* * *

assay: In vitro oral metabolic bioavailability after incubation with hepatic microsomes; format: ADME, Liver; settings: read-out: MF

MOLECULE: O[C@@H]1c2ccccc2C[C@H]1N1CCC(c2cccc3c2OCCO3)CC1 (relative stereo)
Fh: 7%

MOLECULE: COc1ccc2c(c1)[C@@H](O)[C@H](N1CCN(c3cccc4c3OCCO4)CC1)C2 (relative stereo)
Fh: 62%

MOLECULE: O=[N+]([O-])c1ccc2c(c1)[C@@H](O)[C@H](N1CCC(c3cccc4c3OCCO4)CC1)C2 (relative stereo)
Fh: 22%

MOLECULE: O[C@@H]1c2ccccc2C[C@H]1N1CC=C(c2cccc3c2OCCO3)CC1 (relative stereo)
Fh: 4%

MOLECULE: O=[N+]([O-])c1ccc2c(c1)[C@@H](O)[C@H](N1CCN(c3cccc4c3OCCO4)CC1)C2 (relative stereo)
Fh: 71%

MOLECULE: O[C@@H]1c2cc3c(cc2C[C@H]1N1CCC(c2cccc4c2OCCO4)CC1)OCO3 (relative stereo)
Fh: 8%

MOLECULE: O[C@@H]1c2cc(F)ccc2C[C@H]1N1CCC(c2cccc3c2OCCO3)CC1 (relative stereo)
Fh: 8%

MOLECULE: O[C@@H]1c2cc(F)c(F)cc2C[C@H]1N1CCN(c2cccc3c2OCCO3)CC1 (relative stereo)
Fh: 51%

* * *

test: Selectivity ratio towards Alpha-1 adrenergic receptor to human 5-hydroxytryptamine 1A receptor
MEASURED QUANTITY: Ratio

MOLECULE: COc1ccc2c(c1)[C@@H](O)[C@H](N1CCN(c3cccc4c3OCCO4)CC1)C2 (relative stereo)
NUMERIC RESULT: 603
//
MOLECULE: O[C@@H]1c2ccc(F)cc2C[C@H]1N1CCC(c2cccc3c2OCCC3)CC1 (relative stereo)
NUMERIC RESULT: 76
//
MOLECULE: O[C@@H]1c2ccc(F)cc2C[C@H]1N1CCN(c2cccc3c2OCCO3)CC1 (racemic)
NUMERIC RESULT: 562
//
MOLECULE: COc1ccc2c(c1)[C@@H](O)[C@H](N1CCC(c3cccc4c3OCCO4)CC1)C2 (relative stereo)
NUMERIC RESULT: 55
